Molecular target: mouse MMP-3 (Mus musculus)
Sequence (P28862 100-477): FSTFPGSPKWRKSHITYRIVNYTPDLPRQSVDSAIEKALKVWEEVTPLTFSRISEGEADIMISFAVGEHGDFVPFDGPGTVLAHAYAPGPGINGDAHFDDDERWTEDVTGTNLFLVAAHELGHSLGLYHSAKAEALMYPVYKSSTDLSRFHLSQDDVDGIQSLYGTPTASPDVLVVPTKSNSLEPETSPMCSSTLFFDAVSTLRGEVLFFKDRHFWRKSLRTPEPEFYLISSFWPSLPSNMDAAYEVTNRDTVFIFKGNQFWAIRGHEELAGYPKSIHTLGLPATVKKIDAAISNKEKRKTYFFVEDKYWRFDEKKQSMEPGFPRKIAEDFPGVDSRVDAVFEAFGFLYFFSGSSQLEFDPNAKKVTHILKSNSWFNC
Lab note: compare IC50 with 1000 nM, writing Y if less and N if equal or more.

Worked cases, answers included:
# COMPOUND, TARGET_SYSTEM, CATEGORY
data = [
    ("O=C(O)[C@H]1[C@H](Cn2nnc3ccccc3c2=O)CC[C@@H]1C(=O)c1ccc(OCc2ccc(F)cc2)cc1 (racemic)", "mouse MMP-3 (Mus musculus)", "Y"),
    ("Cc1ccc2nnn(C[C@@H]3CC[C@H](C(=O)c4ccc(OCc5cccc(OC(F)(F)F)c5)cc4)[C@H]3C(=O)O)c(=O)c2c1 (racemic)", "mouse MMP-3 (Mus musculus)", "N"),
    ("O=C(O)[C@H]1[C@H](Cn2nnc3ccc(C(F)(F)F)cc3c2=O)CC[C@@H]1C(=O)c1ccc(OCCCC2CCCCC2)cc1 (racemic)", "mouse MMP-3 (Mus musculus)", "N"),
    ("O=C(O)[C@H]1[C@H](Cn2nnc3ccccc3c2=O)CC[C@@H]1C(=O)c1ccc(OCc2ccc(Cl)c(Cl)c2)cc1 (racemic)", "mouse MMP-3 (Mus musculus)", "N"),
    ("O=C(O)[C@H]1[C@H](Cn2nnc3ccccc3c2=O)CC[C@@H]1C(=O)c1ccc(OCc2cccc(Cl)c2)cc1 (racemic)", "mouse MMP-3 (Mus musculus)", "N"),
    ("CCCCCCOc1ccc(C(=O)[C@@H]2CC[C@H](Cn3nnc4ccc(C)cc4c3=O)[C@H]2C(=O)O)cc1 (single isomer, unassigned)", "mouse MMP-3 (Mus musculus)", "N"),
    ("Cc1ccc2nnn(C[C@@H]3CC[C@H](C(=O)c4ccc(OCc5cccc(Cl)c5)cc4)[C@H]3C(=O)O)c(=O)c2c1 (racemic)", "mouse MMP-3 (Mus musculus)", "N"),
    ("COC(=O)Nc1cccc(COc2ccc(C(=O)[C@@H]3CC[C@H](Cn4nnc5ccc(C(F)(F)F)cc5c4=O)[C@H]3C(=O)O)cc2)c1 (stereo in doubt)", "mouse MMP-3 (Mus musculus)", "N"),
]

Enquiry: Confirm or reject: IC50 of Cc1ccc2nnn(C[C@H]3CC[C@@H](C(=O)c4ccc(OCc5cccc(C(F)(F)F)c5)cc4)[C@@H]3C(=O)O)c(=O)c2c1 (single isomer, unassigned) lies strictly below 1000 nM
Return: N

Enquiry: Please give the result for O=C(O)[C@H]1[C@H](Cn2nnc3ccc(C(F)(F)F)cc3c2=O)CC[C@@H]1C(=O)c1ccc(OCC2CCCCC2)cc1 (racemic) too.
Return: Y

Enquiry: Please give the result for O=C(O)[C@H]1[C@H](Cn2nnc3ccc(C(F)(F)F)cc3c2=O)CC[C@@H]1C(=O)c1ccc(OCc2ccccc2)cc1 (racemic) too.
Return: Y

Enquiry: Please give the result for Cc1ccc2nnn(C[C@@H]3CC[C@H](C(=O)c4ccc(OCc5cccc(C(F)(F)F)c5)cc4)[C@H]3C(=O)O)c(=O)c2c1 (racemic) too.
Return: N

---

Target: MMP-7 (Homo sapiens, UniProt P09237)
Construct: purchased R&D Systems 907-MP
Sequence (P09237 95-267): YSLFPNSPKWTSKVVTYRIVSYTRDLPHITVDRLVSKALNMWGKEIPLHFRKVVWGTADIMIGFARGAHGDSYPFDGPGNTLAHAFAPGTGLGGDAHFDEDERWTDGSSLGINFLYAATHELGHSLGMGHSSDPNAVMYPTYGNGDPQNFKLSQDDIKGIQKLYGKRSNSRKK
Assay: In vitro MMP-7 inhibition test
Format: biochemical
Reported pIC50 values follow for various molecules
# pIC50: negative log10 of molar concentration; output just the value

Take a look at these entries with their results.
# MOLECULE, pIC50
measured = [
    ("O=C(O)[C@@H]1[C@@H](Cn2nnc3ccc(C(F)(F)F)cc3c2=O)CC[C@H]1C(=O)c1ccc(OCc2cccc(Cl)c2)cc1 (single isomer, unassigned)", 6.30),
    ("COc1cccc(COc2ccc(C(=O)[C@H]3CC[C@@H](Cn4nnc5ccc(C)cc5c4=O)[C@@H]3C(=O)O)cc2)c1 (racemic)", 6.72),
    ("O=C(O)[C@H]1[C@H](Cn2nnc3ccc(C(F)(F)F)cc3c2=O)CC[C@@H]1C(=O)c1ccc(OCc2ccccc2)cc1 (racemic)", 7.06),
    ("O=C(O)[C@@H]1[C@@H](Cn2nnc3ccc(C(F)(F)F)cc3c2=O)CC[C@H]1C(=O)c1ccc(OCc2cccc(C(F)(F)F)c2)cc1 (single isomer, unassigned)", 5.80),
    ("O=C(O)[C@@H]1[C@@H](Cn2nnc3ccc(C(F)(F)F)cc3c2=O)CC[C@H]1C(=O)c1ccc(SCc2cccc(Cl)c2)cc1 (single isomer, unassigned)", 6.82),
    ("O=C(O)[C@@H]1[C@@H](Cn2nnc3ccc(C(F)(F)F)cc3c2=O)CC[C@H]1C(=O)c1ccc(SCc2ccc(Cl)c(Cl)c2)cc1 (single isomer, unassigned)", 6.70),
]

Enquiry: Endpoint output: pIC50 of COc1cccc(COc2ccc(C(=O)[C@@H]3CC[C@H](Cn4nnc5ccc(C)cc5c4=O)[C@H]3C(=O)O)cc2)c1 (single isomer, unassigned) . Value?
Return: 6.70

---

Molecular target: human macrophage elastase (HME/hMMP-12) (Homo sapiens, UniProt P39900)
Construct: 0.5 nM HME
Sequence (P39900 106-470): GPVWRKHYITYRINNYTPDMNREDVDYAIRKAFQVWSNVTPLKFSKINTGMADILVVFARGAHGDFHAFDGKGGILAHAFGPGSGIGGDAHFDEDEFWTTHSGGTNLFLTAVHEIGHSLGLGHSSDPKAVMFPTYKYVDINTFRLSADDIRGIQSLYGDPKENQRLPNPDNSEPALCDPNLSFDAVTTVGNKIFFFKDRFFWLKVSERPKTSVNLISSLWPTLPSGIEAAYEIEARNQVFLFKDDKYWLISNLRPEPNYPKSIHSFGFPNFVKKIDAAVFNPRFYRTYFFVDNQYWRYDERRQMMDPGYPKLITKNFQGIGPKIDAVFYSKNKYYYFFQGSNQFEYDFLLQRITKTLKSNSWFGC
Test: In vitro HME inhibition test (standard or high-sensitivity)
Details: in some cases mean values
OBSERVABLE: pIC50
# pIC50: negative log10 of molar concentration; output just the value

Take a look at these entries with their results.
# COMPOUND, pIC50
records = [
    ("CCCCCOc1ccc(C(=O)[C@@H]2CC[C@H](Cn3nnc4ccc(C(F)(F)F)cc4c3=O)[C@H]2C(=O)O)cc1 (single isomer, unassigned) [Example 65]", 8.92),
    ("O=C(O)[C@H]1[C@H](Cn2nnc3ccccc3c2=O)CC[C@@H]1C(=O)c1ccc(OCCC2CCCCC2)cc1 (racemic)", 10.15),
]

Now look at this one.
Enquiry: Which pIC50 is reported with human macrophage elastase (HME/hMMP-12) (Homo sapiens, UniProt P39900) for this entry: CCCCCSc1ccc(C(=O)[C@@H]2CC[C@H](Cn3nnc4ccc(C(F)(F)F)cc4c3=O)[C@H]2C(=O)O)cc1 (single isomer, unassigned) [Example 90] ?
Return: 8.96

---

Biological target: human macrophage elastase (HME/hMMP-12) (Homo sapiens, UniProt P39900)
Construct: 0.5 nM HME
Experiment: In vitro HME inhibition test (standard or high-sensitivity)
Settings: in some cases mean values
Experimental: The potency of the compounds according to the invention with respect to HME (MMP-12) is determined in an in vitro inhibition test. The HME-mediated amidolytic cleavage of a suitable peptide substrate leads to an increase in fluorescent light therein. The signal intensity of the fluorescent light is directly proportional to the enzyme activity. […]
OBSERVABLE: pIC50
# pIC50: negative log10 of molar concentration; output just the value

Take a look at these entries with their results.
# COMPOUND, pIC50
records = [
    ("COc1cccc(COc2ccc(C(=O)[C@@H]3CC[C@H](Cn4nnc5ccc(C)cc5c4=O)[C@H]3C(=O)O)cc2)c1 (single isomer, unassigned) [Example 108]", 6.33),
    ("Cc1ccc2nnn(C[C@H]3CC[C@@H](C(=O)c4ccc(OCC5CCCCC5)cc4)[C@@H]3C(=O)O)c(=O)c2c1 (single isomer, unassigned) [Example 117]", 10.85),
    ("O=C(O)[C@@H]1[C@@H](Cn2nnc3ccc(C(F)(F)F)cc3c2=O)CC[C@H]1C(=O)c1ccc(SCc2cccc(Cl)c2)cc1 (single isomer, unassigned) [Example 77]", 10.40),
    ("Cc1ccc2nnn(C[C@H]3CC[C@@H](C(=O)c4ccc(OCc5ccc(F)cc5)cc4)[C@@H]3C(=O)O)c(=O)c2c1 (single isomer, unassigned) [Example 96]", 6.92),
]

Now look at this one.
Enquiry: Endpoint output: pIC50 of O=C(O)[C@@H]1[C@@H](Cn2nnc3ccc(C(F)(F)F)cc3c2=O)CC[C@H]1C(=O)c1ccc(OCc2cccc(Cl)c2)cc1 (single isomer, unassigned) [Example 22] . Value?
Return: 6.77

---

Biological target: UniProt:P34960
Sequence (P34960 110-473): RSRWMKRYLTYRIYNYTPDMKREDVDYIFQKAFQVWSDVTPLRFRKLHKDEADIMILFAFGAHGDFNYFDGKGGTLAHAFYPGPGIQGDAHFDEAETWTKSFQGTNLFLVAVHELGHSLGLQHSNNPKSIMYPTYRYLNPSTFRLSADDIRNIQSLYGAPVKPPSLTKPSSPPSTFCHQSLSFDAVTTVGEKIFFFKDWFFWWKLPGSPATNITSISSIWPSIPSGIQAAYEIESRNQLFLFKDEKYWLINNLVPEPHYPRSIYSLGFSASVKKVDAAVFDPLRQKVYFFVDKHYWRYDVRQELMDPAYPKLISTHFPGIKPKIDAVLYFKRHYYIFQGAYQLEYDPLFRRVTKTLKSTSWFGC
Reported IC50 values follow for various compounds
Response body: numeric value in nM, unit text excluded.

# COMPOUND, RESULT_UNITS, IC50
rows = [
    ("Cc1ccc2nnn(C[C@H]3CC[C@@H](C(=O)c4ccc(OCc5cccc(C(F)(F)F)c5)cc4)[C@@H]3C(=O)O)c(=O)c2c1 (single isomer, unassigned)", "nM", 1.1),
    ("Cc1ccc2nnn(C[C@@H]3CC[C@H](C(=O)c4ccc(OCc5cccc(C(F)(F)F)c5)cc4)[C@H]3C(=O)O)c(=O)c2c1 (racemic)", "nM", 1.7),
    ("Cc1ccc2nnn(C[C@H]3CC[C@@H](C(=O)c4ccc(OCc5cccc(Cl)c5)cc4)[C@@H]3C(=O)O)c(=O)c2c1 (single isomer, unassigned)", "nM", 1.1),
    ("O=C(O)[C@@H]1[C@@H](Cn2nnc3ccc(C(F)(F)F)cc3c2=O)CC[C@H]1C(=O)c1ccc(SCc2ccccc2)cc1 (single isomer, unassigned)", "nM", 2.3),
]

Now look at this one.
Enquiry: Endpoint output: IC50 of Cc1ccc2nnn(C[C@@H]3CC[C@H](C(=O)c4ccc(OCc5cccc(OC(F)(F)F)c5)cc4)[C@H]3C(=O)O)c(=O)c2c1 (racemic) . Value?
Return: 3
